For each entry below, report its inhibition at 10 µM value.
Target: B1R receptor of the rat (Rattus norvegicus, UniProt P97583)
Construct: host or cells: CHO K1 cells (Chinese hamster ovary), stably transfected
Sequence (P97583 1-337): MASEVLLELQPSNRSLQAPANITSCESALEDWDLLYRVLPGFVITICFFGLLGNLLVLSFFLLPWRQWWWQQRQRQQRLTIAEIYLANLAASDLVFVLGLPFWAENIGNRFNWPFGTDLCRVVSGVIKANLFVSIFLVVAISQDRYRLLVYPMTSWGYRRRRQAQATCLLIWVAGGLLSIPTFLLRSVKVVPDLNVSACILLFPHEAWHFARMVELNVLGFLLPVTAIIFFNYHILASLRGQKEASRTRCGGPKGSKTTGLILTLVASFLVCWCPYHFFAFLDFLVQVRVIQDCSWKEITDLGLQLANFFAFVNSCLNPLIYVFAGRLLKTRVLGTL
Experiment: Functional study on the bradykinin receptor 1 (B1R), FLIPR Ca2+ assay, rB1R cells
Assay type: cell-based
Conditions: CHO-K1, test substance 10 μM, agonist Des-Arg9-bradykinin 100 nM, % inhibition compared with the maximum achievable inhibition, read-out: B1R Antagonism, rat [10 μM] % Inhibition
Source text: The agonistic or antagonistic action of substances can be quantified on the bradykinin receptor 1 (B1R) of the species human and rat with ectopically expressing cell lines (CHO K1 cells) and with the aid of a Ca^2+-sensitive dye (Fluo-4) using a fluorescent imaging plate reader (FLIPR). […] The agonistic or antagonistic action of substances can be determined on the bradykinin receptor 1 (B1R) of the species human and rat using the following assay. […]
Counter-ions that a name gives are not always drawn.
One number for each entry, in %.

Quick request: inhibition at 10 µM for each listed item, please.
1. Cc1cc(C)c(S(=O)(=O)N2Cc3ccccc3CC2COCC(=O)NCC2CCCN(Cc3ccccc3)C2)c(C)c1 (stereo not drawn)
2. CN1CCN(C2CCN(C(=O)COCC3CCCCN3S(=O)(=O)c3ccc(Cl)c(Cl)c3)CC2)CC1 (stereo not drawn)
3. COc1cc(C)c(S(=O)(=O)N2CCCC2COCC(=O)N2CCN(c3ccccc3F)CC2)c(C)c1 (stereo not drawn)
4. Cc1cccc(CC2CCCN2C(=O)COCC2CCCCN2S(=O)(=O)c2c(Cl)cccc2Cl)n1 (stereo not drawn)
5. O=C(COCC1CCCCN1S(=O)(=O)c1ccc(Cl)c(Cl)c1)Nc1cccc(CN2CCCC2)c1 (stereo not drawn)

Outgoing:
[16.4, 0, 99.4, 100, -6.96]

Quick request: inhibition at 10 µM for each listed item, please.
1. COc1ccc(C2CCCCN2C(=O)COCC2CCCCN2S(=O)(=O)c2c(C)cc(C)cc2C)cn1 (stereo not drawn)
2. COc1cc(C)c(S(=O)(=O)N2CCC[C@H]2COCC(=O)N2CCC(CCN3CCCC3)CC2)c(C)c1 [Example 190, hydrochloride]
3. CN1CCC(N2CCN(C(=O)COCC3CCCCN3S(=O)(=O)c3ccc(Cl)c(C(F)(F)F)c3)CC2)CC1 (stereo not drawn)
4. O=C(COCC1Cc2ccccc2CN1S(=O)(=O)c1ccc(Cl)cc1Cl)N1CCCN(Cc2ccccc2)CC1 (stereo not drawn)
5. COc1cc(C)c(S(=O)(=O)N2CCCC2COCC(=O)N2CCN(c3ccncc3)CC2)c(C)c1 (stereo not drawn)

Outgoing:
1: 94.5; 2: 102; 3: 58.1; 4: 54.5; 5: 98.1

Quick request: inhibition at 10 µM for each listed item, please.
1. COc1cccc(N2CCN(C(=O)COCC3CCCCN3S(=O)(=O)c3ccc(Cl)c(Cl)c3)CC2)c1 (stereo not drawn)
2. Cc1cccc(Cl)c1S(=O)(=O)N1CCCCC1COCC(=O)N1CCN(C2CCN(C)CC2)CC1 (stereo not drawn)
3. O=C(COCC1CCCN1S(=O)(=O)c1cc(Cl)sc1Cl)N1CCN(Cc2ccccc2)CC1 (stereo not drawn)

Outgoing:
0
102
90.2

Quick request: inhibition at 10 µM for each listed item, please.
1. COc1cc(C)c(S(=O)(=O)N2CCCCC2COCC(=O)N2CCN(Cc3ccc(Cl)c(Cl)c3)CC2)c(C)c1 (stereo not drawn)
2. Cc1ccccc1Oc1cccc(S(=O)(=O)N2CCCCC2COCC(=O)N2CCN(C3CCN(C)CC3)CC2)c1 (stereo not drawn)
3. CN1CCC(N2CCN(C(=O)COCC3CCCCN3S(=O)(=O)c3ccc(Cl)c4nonc34)CC2)CC1 (stereo not drawn)
4. COc1cc(C)c(S(=O)(=O)N2CCCCC2COCC(=O)Nc2cccnc2N2CCOCC2)c(C)c1 (stereo not drawn)

Outgoing:
[100, 95.4, 84.4, 100]
